Tested on: CCRIS mutagenicity, Ames/micronucleus/aberration tests
Assay: CCRIS mutagenicity studies
Conditions: Test System: AMES SALMONELLA TYPHIMURIUM; Strain/Indicator: TA1537; Metabolic Activation: NONE; Method: PREINCUBATION
Source text: The CCRIS database contains chemical records with carcinogenicity, mutagenicity, tumor promotion, and tumor inhibition test results. It was developed by the National Cancer Institute (NCI). Data are derived from studies cited in primary journals, current awareness tools, NCI reports, and other sources. Test results have been reviewed by experts in carcinogenesis and mutagenesis. CCRIS provides historical information from the years 1985 - 2011. It is no longer updated. […]
The source made the active and inactive calls. The rule behind the calls is not given here.
Readout Type: mutagenic call

Before answering, review these 6 worked examples.
Compound: CC(O)CN (stereo not drawn)
mutagenic call: inactive; negative
--
Compound: CCCCNC(=O)n1c(NC(=O)OC)nc2ccccc21
mutagenic call: inactive; negative
--
Compound: CNc1ccc(O)cc1
mutagenic call: inactive; negative
--
Compound: O=C1CCCCCCCCCCCCCCO1
mutagenic call: inactive; negative
--
Compound: O=NN1CN2CN(C1)CN(N=O)C2
mutagenic call: inactive; negative
--
Compound: C=CC1CC2C=CC1C2 (stereo not drawn)
mutagenic call: inactive; negative

Query: Give the reported mutagenic call for COc1ccc(CN(CCN(C)C)c2ccccn2)cc1 (system: CCRIS mutagenicity, Ames/micronucleus/aberration tests).
Reply: inactive; negative

Query: Give the reported mutagenic call for Nc1ccccn1 (system: CCRIS mutagenicity, Ames/micronucleus/aberration tests).
Reply: inactive; negative
